- Test system: KB tumor-bearing athymic nude mice
- assay.explanation: Biodistribution of 177Lu-RedFols in KB tumor-bearing mice
- Assay type: in vivo, mouse
- study.conditions: 24 h p.i.
// reported Lung, accumulated activity for each item listed
Record the value in % IA/g, omitting the unit from your answer.

Worked set:
molecule	metric.name	measure.unit	reading
CN1c2c(nc(N)[nH]c2=O)NC[C@H]1CNc1ccc(C(=O)N[C@@H](CCC(=O)N[C@@H](CCCCNC(=O)CN2CCN(CC(=O)O)CCN(CC(=O)O)CCN(CC(=O)O)CC2)C(=O)N[C@@H](CCCCNC(=O)c2ccc(CNC(=O)CCCc3ccc(I)cc3)cc2)C(=O)O)C(=O)O)cc1 [[^177Lu]Lu-6R-RedFol-3, metal not drawn]	Lung, accumulated activity	% IA/g	4.1
CN1c2c(nc(N)[nH]c2=O)NC[C@H]1CNc1ccc(C(=O)N[C@@H](CCC(=O)N[C@@H](CCCCNC(=O)CN2CCN(CC(=O)O)CCN(CC(=O)O)CCN(CC(=O)O)CC2)C(=O)N[C@@H](CCCCNC(=O)c2ccc(CNC(=O)CCCCc3ccc(I)cc3)cc2)C(=O)O)C(=O)O)cc1 [[^177Lu]Lu-6R-RedFol-25, metal not drawn]	Lung, accumulated activity	% IA/g	0.78

Would you kindly look at the next entry?
stdin: Write down the reported Lung, accumulated activity of CN1c2c(nc(N)[nH]c2=O)NCC1CNc1ccc(C(=O)NC(CCC(=O)NC(CCCCNC(=O)CN2CCN(CC(=O)[O-])CCN(CC(=O)[O-])CCN(CC(=O)[O-])CC2)C(=O)NC(CCCCNC(=O)c2ccc(CNC(=O)CCCc3ccc(I)cc3)cc2)C(=O)O)C(=O)O)cc1.[177Lu+3] (stereo not drawn) [[^177Lu]Lu-6S-RedFol-3] , test system: KB tumor-bearing athymic nude mice.
stdout: 4.8
